Value source: patent US20180008587A1

Target: F876L mutant Androgen Receptor (AR-F876L) (Homo sapiens, UniProt P10275, F877L)
Construct: expressed in transfected cells; host or cells: LNCaP (LNCaP F876L)
Sequence (P10275 1-920 F877L): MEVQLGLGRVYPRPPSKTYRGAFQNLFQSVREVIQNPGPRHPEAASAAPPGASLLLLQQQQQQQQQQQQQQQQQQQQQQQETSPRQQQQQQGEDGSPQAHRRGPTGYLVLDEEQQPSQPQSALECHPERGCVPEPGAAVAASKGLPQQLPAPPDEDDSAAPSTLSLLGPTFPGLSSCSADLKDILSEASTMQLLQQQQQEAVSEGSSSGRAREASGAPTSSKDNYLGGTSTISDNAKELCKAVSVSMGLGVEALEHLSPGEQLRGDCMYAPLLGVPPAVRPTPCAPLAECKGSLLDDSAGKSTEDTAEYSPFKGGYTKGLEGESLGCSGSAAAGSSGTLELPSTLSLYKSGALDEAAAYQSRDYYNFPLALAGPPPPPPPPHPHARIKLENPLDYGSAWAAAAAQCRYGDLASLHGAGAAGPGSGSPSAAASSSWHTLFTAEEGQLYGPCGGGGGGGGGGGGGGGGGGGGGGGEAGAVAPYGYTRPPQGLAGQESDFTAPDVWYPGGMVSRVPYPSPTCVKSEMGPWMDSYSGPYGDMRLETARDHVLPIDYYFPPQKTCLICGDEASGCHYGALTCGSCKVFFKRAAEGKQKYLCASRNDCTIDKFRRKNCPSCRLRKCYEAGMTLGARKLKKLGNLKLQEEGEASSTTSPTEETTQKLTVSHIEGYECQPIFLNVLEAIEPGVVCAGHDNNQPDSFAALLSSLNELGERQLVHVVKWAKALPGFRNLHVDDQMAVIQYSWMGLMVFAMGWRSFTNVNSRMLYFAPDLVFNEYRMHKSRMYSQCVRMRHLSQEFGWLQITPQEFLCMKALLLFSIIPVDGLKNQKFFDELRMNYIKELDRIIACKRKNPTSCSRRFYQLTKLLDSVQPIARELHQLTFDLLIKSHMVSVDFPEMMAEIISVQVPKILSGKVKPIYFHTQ
Experiment: LNCaP-AR-F876L AG reporter assay (ARE firefly luciferase, agonist mode)
Assay type: cell-based
Conditions: maximum % stimulation (agonist response) over tested concentration range; read-out: LNCaP-AR-F876L AG MAX % Stim
experimental-endpoint: Emax (%)
# output: bare number, implied unit %

Solved cases below.
{"smiles-record": "N#Cc1ncc(N2C(=O)C3(CCC3)N(c3ccc(OCCN4CCCCC4)cc3F)C2=S)cc1C(F)(F)F", "unit-abbreviation": "%", "Emax": 1.4}
{"smiles-record": "CS(=O)(=O)N1CCC(Oc2ccc(N3C(=S)N(c4cnc(C#N)c(C(F)(F)F)c4)C(=O)C34CCC4)cc2)CC1", "unit-abbreviation": "%", "Emax": 6.2}
{"smiles-record": "CC(C)NC(=O)c1ccc(N2C(=S)N(c3cnc(C#N)c(C(F)(F)F)c3)C(=O)C23CCC3)cc1F", "unit-abbreviation": "%", "Emax": 0}
{"smiles-record": "N#Cc1ncc(N2C(=O)C3(CCC3)N(c3ccc(C(N)=O)c(F)c3)C2=S)cc1C(F)(F)F", "unit-abbreviation": "%", "Emax": 1.2}
{"smiles-record": "Cc1cc(N2C(=O)C3(CCC3)N(c3ccc(-c4ccco4)cc3)C2=S)cnc1C#N", "unit-abbreviation": "%", "Emax": 1.3}

Problem: Requested field: Emax. Item: "Cc1cc(N2C(=O)C3(CCC3)N(c3ccc(-c4cncc(F)c4)cc3)C2=S)cnc1C#N"
Solution: 2.2

Problem: Which Emax is listed for "COCCCNC(=O)c1ccc(N2C(=S)N(c3cnc(C#N)c(C(F)(F)F)c3)C(=O)C23CCC3)cc1F" ?
Solution: 0.1

Problem: I would be grateful if you could share the reported Emax for "Cc1cc(N2C(=O)C3(CCC3)N(c3ccc(-c4cccnc4C)cc3)C2=S)cnc1C#N" .
Solution: 3.9
